System: giant foxtail (Setaria faberii)
TEST_DETAILS: Test B pre-/postemergence plant response
Type: in vivo
TEST_CONTEXT: Preemergence; 8 g ai/ha; scale 0 to 100
Text: […] Plant species in the flooded paddy test consisted of rice (Oryza sativa), umbrella sedge (Cyperus difformis), ducksalad (Heteranthera limosa) and barnyardgrass (Echinochloa crus-galli) grown to the 2-leaf stage for testing. […] Treated plants and controls were maintained in a greenhouse for 13 to 15 days, after which time all species were compared to controls and visually evaluated. […]
READOUT_NAME: Foxtail, Giant plant response rating
Enter a number only.

[[record]]
compound = "Cc1cc(-c2ccc(Cl)cc2)nn1-c1c(OC(=O)Oc2ccccc2)cnn(C)c1=O [Compound 54]"
observed_value = 0

[[record]]
compound = "Cc1cc(-c2ccc(Cl)cc2)nn1-c1c(OS(=O)(=O)c2cccc3ccccc23)cnn(C)c1=O [Compound 47]"
observed_value = 0

[[record]]
compound = "Cc1cc(-c2ccc(C(F)(F)F)c(F)c2)nn1-c1c(O)c(C(F)(F)F)nn(C)c1=O [Compound 44]"
observed_value = 0


# returns recorded Foxtail, Giant plant response rating (system: giant foxtail (Setaria faberii)) for Cc1cc(-c2ccc(Cl)cc2)nn1-c1c(OS(=O)(=O)c2ccccc2)cnn(C)c1=O [Compound 35] 100

Further, for Cc1cc(-c2ccc(Cl)cc2)nn1-c1c(OC(=O)c2ccccc2Cl)cnn(C)c1=O [Compound 38] ? 45
